- Tested on: Escherichia coli TOP10
- assayProcedure: shrunken log2 fold change of peptide-encoding DNA abundance (4.5 h post-induction vs induction); higher = less antimicrobial activity (less host growth inhibition)
- statedConditions: time post-induction: 4.5 h; library: site-saturation at positions 5, 18, 19, 20
Mark YES for reported shrunken log2 fold change of 0.02 or greater; mark NO for anything smaller.

| seqText | labelValue |
| --- | --- |
| RRIRNRPPRLPRPRPRPPYGPRP | NO |
| RRIRIRPPRLPRPRPRPWNVPRP | NO |
| RRIRPRPPRLPRPRPRPANRPRP | NO |
| RRIRSRPPRLPRPRPRPGMGPRP | YES |
| RRIRCRPPRLPRPRPRPREMPRP | YES |
| RRIRWRPPRLPRPRPRPHCSPRP | NO |
| RRIRQRPPRLPRPRPRPLVNPRP | NO |
| RRIRGRPPRLPRPRPRPAYSPRP | NO |
| RRIRKRPPRLPRPRPRPEELPRP | YES |
| RRIRGRPPRLPRPRPRPAMSPRP | YES |
| RRIRYRPPRLPRPRPRPIKDPRP | NO |
| RRIRLRPPRLPRPRPRPWAWPRP | NO |
| RRIRPRPPRLPRPRPRPYDAPRP | NO |
| RRIRLRPPRLPRPRPRPVIFPRP | NO |
| RRIRMRPPRLPRPRPRPFKRPRP | YES |
| RRIRQRPPRLPRPRPRPENSPRP | NO |
| RRIRRRPPRLPRPRPRPHQTPRP | YES |
| RRIRNRPPRLPRPRPRPLMHPRP | NO |
| RRIRKRPPRLPRPRPRPLLRPRP | YES |
| RRIRFRPPRLPRPRPRPAYAPRP | YES |
| RRIRMRPPRLPRPRPRPYGCPRP | NO |
| RRIRKRPPRLPRPRPRPCSDPRP | NO |
| RRIRGRPPRLPRPRPRPVVGPRP | YES |
| RRIRERPPRLPRPRPRPCHRPRP | NO |
| RRIRERPPRLPRPRPRPTKHPRP | NO |
| RRIRIRPPRLPRPRPRPERAPRP | YES |
| RRIRLRPPRLPRPRPRPADYPRP | NO |
| RRIRERPPRLPRPRPRPKCLPRP | NO |
| RRIRKRPPRLPRPRPRPPWLPRP | YES |
| RRIRARPPRLPRPRPRPMNRPRP | NO |
| RRIRPRPPRLPRPRPRPQTQPRP | YES |
| RRIRQRPPRLPRPRPRPYGCPRP | NO |
| RRIRFRPPRLPRPRPRPAAHPRP | YES |
| RRIRTRPPRLPRPRPRPTIKPRP | NO |
| RRIRDRPPRLPRPRPRPEGMPRP | YES |
| RRIRPRPPRLPRPRPRPCYLPRP | NO |
| RRIRRRPPRLPRPRPRPRHNPRP | NO |
| RRIRARPPRLPRPRPRPRISPRP | YES |
| RRIRGRPPRLPRPRPRPSWSPRP | YES |
| RRIRDRPPRLPRPRPRPNGKPRP | NO |
| RRIRNRPPRLPRPRPRPQIHPRP | NO |
| RRIRMRPPRLPRPRPRPFLNPRP | NO |
| RRIRTRPPRLPRPRPRPYREPRP | NO |
| RRIRLRPPRLPRPRPRPCGYPRP | NO |
| RRIRWRPPRLPRPRPRPSAYPRP | NO |
| RRIRQRPPRLPRPRPRPAWCPRP | YES |
| RRIRARPPRLPRPRPRPAPPPRP | YES |
| RRIRPRPPRLPRPRPRPSRSPRP | YES |
| RRIRYRPPRLPRPRPRPVMEPRP | NO |
| RRIRHRPPRLPRPRPRPRSKPRP | YES |
| RRIRMRPPRLPRPRPRPGLAPRP | YES |
| RRIRSRPPRLPRPRPRPFNMPRP | NO |
| RRIRWRPPRLPRPRPRPFCFPRP | YES |
| RRIRTRPPRLPRPRPRPLNGPRP | NO |
| RRIRPRPPRLPRPRPRPFCCPRP | YES |
| RRIRPRPPRLPRPRPRPYIGPRP | NO |
| RRIRGRPPRLPRPRPRPAYMPRP | NO |
| RRIRMRPPRLPRPRPRPMGHPRP | NO |
| RRIRFRPPRLPRPRPRPELTPRP | YES |
| RRIRDRPPRLPRPRPRPPQNPRP | YES |
| RRIRIRPPRLPRPRPRPASGPRP | YES |
| RRIRKRPPRLPRPRPRPANNPRP | YES |
| RRIRMRPPRLPRPRPRPKWQPRP | NO |

---

- Test system: Escherichia coli TOP10
- assayProcedure: shrunken log2 fold change of peptide-encoding DNA abundance (4.5 h post-induction vs induction); higher = less antimicrobial activity (less host growth inhibition)
- statedConditions: time post-induction: 4.5 h; library: site-saturation at positions 5, 18, 19, 20
shrunken log2 fold change reference

| seqText | shrunken log2 fold change |
| --- | --- |
| RRIRFRPPRLPRPRPRPRNPPRP | 0.118 |
| RRIRCRPPRLPRPRPRPDGWPRP | 0.378 |
| RRIRQRPPRLPRPRPRPGMHPRP | -0.0509 |
| RRIRDRPPRLPRPRPRPGKGPRP | 0.0189 |
| RRIRDRPPRLPRPRPRPTRKPRP | 0.385 |
| RRIRSRPPRLPRPRPRPICAPRP | 0.47 |
| RRIRQRPPRLPRPRPRPLAVPRP | 0.0758 |
| RRIRWRPPRLPRPRPRPVLPPRP | -0.0604 |
| RRIRGRPPRLPRPRPRPIPQPRP | 0.358 |
| RRIRSRPPRLPRPRPRPKYRPRP | 0.127 |
| RRIRQRPPRLPRPRPRPLLKPRP | -0.321 |
| RRIRTRPPRLPRPRPRPYAGPRP | -0.14 |
| RRIRIRPPRLPRPRPRPQSSPRP | 0.00983 |
| RRIRKRPPRLPRPRPRPPKNPRP | 0.546 |
| RRIRRRPPRLPRPRPRPDCWPRP | 0.676 |

---

shrunken log2 fold change reference
- Tested on: Escherichia coli TOP10;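 further: peptides expressed intracellularly from a pBAD plasmid library in pooled LB shake-flask culture, induced with 0.3% L-arabinose, DNA abundance read by NGS, three biological replicates, DESeq2 with apeglm shrinkage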
- assayProcedure: shrunken log2 fold change of peptide-encoding DNA abundance (4.5 h post-induction vs induction); higher = less antimicrobial activity (less host growth inhibition)
- statedConditions: time post-induction: 4.5 h; library: site-saturation at positions 5, 18, 19, 20

| seqText | shrunken log2 fold change |
| --- | --- |
| RRIRYRPPRLPRPRPRPWTRPRP | 0.0101 |
| RRIRRRPPRLPRPRPRPKQSPRP | 0.143 |
| RRIRHRPPRLPRPRPRPMYTPRP | 0.588 |
| RRIRVRPPRLPRPRPRPRTPPRP | 0.555 |
| RRIRGRPPRLPRPRPRPQDRPRP | 0.297 |
| RRIRHRPPRLPRPRPRPRTDPRP | 0.0682 |
| RRIRCRPPRLPRPRPRPTQCPRP | 0.0468 |
| RRIRGRPPRLPRPRPRPPRFPRP | 1.04 |
| RRIRQRPPRLPRPRPRPNTYPRP | -1.07 |
| RRIRLRPPRLPRPRPRPYLFPRP | -0.602 |
| RRIRVRPPRLPRPRPRPQKDPRP | -0.187 |
| RRIRARPPRLPRPRPRPLFFPRP | 0.577 |
| RRIRLRPPRLPRPRPRPDRNPRP | 0.0573 |
| RRIRCRPPRLPRPRPRPREVPRP | 0.415 |
| RRIRPRPPRLPRPRPRPLYEPRP | -0.303 |
| RRIRNRPPRLPRPRPRPIDFPRP | -0.413 |
| RRIRYRPPRLPRPRPRPLPGPRP | -0.139 |
| RRIRKRPPRLPRPRPRPECHPRP | -0.0136 |
| RRIRIRPPRLPRPRPRPRMFPRP | -0.125 |
| RRIRNRPPRLPRPRPRPDKPPRP | -0.14 |
| RRIRYRPPRLPRPRPRPMNLPRP | -0.0114 |
| RRIRYRPPRLPRPRPRPREGPRP | 0.251 |
| RRIRMRPPRLPRPRPRPAWAPRP | 0.663 |
| RRIRTRPPRLPRPRPRPWTDPRP | -0.17 |
| RRIRTRPPRLPRPRPRPAHRPRP | 0.0856 |
| RRIRVRPPRLPRPRPRPVMDPRP | -0.324 |
| RRIRNRPPRLPRPRPRPRGTPRP | 0.224 |
| RRIRHRPPRLPRPRPRPCTHPRP | -0.192 |
| RRIRIRPPRLPRPRPRPFVEPRP | -0.37 |
| RRIRARPPRLPRPRPRPIWLPRP | 0.221 |
| RRIRWRPPRLPRPRPRPHMHPRP | -0.36 |
| RRIRMRPPRLPRPRPRPLGGPRP | 0.548 |
| RRIRDRPPRLPRPRPRPGIGPRP | 0.76 |
| RRIRNRPPRLPRPRPRPDGVPRP | 0.221 |
| RRIRDRPPRLPRPRPRPTWMPRP | 0.507 |
| RRIRIRPPRLPRPRPRPTVCPRP | 0.312 |
| RRIRERPPRLPRPRPRPFTTPRP | -0.381 |
| RRIRHRPPRLPRPRPRPAGKPRP | 0.0288 |
| RRIRLRPPRLPRPRPRPLPVPRP | 0.0348 |
| RRIRFRPPRLPRPRPRPYINPRP | -0.647 |
| RRIRRRPPRLPRPRPRPWWIPRP | 0.249 |
| RRIRRRPPRLPRPRPRPFAEPRP | 0.61 |
| RRIRFRPPRLPRPRPRPIFEPRP | -0.0328 |
| RRIRNRPPRLPRPRPRPGIGPRP | 0.239 |
| RRIRRRPPRLPRPRPRPTEFPRP | -0.191 |
| RRIRSRPPRLPRPRPRPMQHPRP | -0.122 |
| RRIRVRPPRLPRPRPRPQELPRP | -0.0343 |
| RRIRRRPPRLPRPRPRPKISPRP | 0.14 |
| RRIRFRPPRLPRPRPRPTDYPRP | -0.578 |
| RRIRMRPPRLPRPRPRPEANPRP | 3.83 |
| RRIRFRPPRLPRPRPRPRIIPRP | -0.514 |
| RRIRHRPPRLPRPRPRPGARPRP | 0.335 |
| RRIRPRPPRLPRPRPRPHWEPRP | -0.146 |
| RRIRKRPPRLPRPRPRPAESPRP | 0.563 |
| RRIRWRPPRLPRPRPRPRTKPRP | 1.88 |
| RRIRDRPPRLPRPRPRPCSAPRP | 0.45 |
| RRIRVRPPRLPRPRPRPCVSPRP | -0.0282 |
| RRIRSRPPRLPRPRPRPSCSPRP | -0.231 |
| RRIRLRPPRLPRPRPRPIMTPRP | -0.397 |
| RRIRIRPPRLPRPRPRPKFWPRP | -0.0477 |
| RRIRTRPPRLPRPRPRPECMPRP | 0.378 |
| RRIRNRPPRLPRPRPRPEMMPRP | 0.317 |
| RRIRTRPPRLPRPRPRPIIRPRP | -0.0034 |
